Reference for the values: ChEMBL document CHEMBL1687712

Each item that follows carries a reported Activity.
# Test system: Woodchuck hepatitis virus
# protocol-summary: Antiviral activity against Woodchuck hepatitis virus infected in woodchuck assessed as frequency of hepatocytes expressing viral antigen at 15 mg/kg, po qd measured on 36th week on 48 weeks study
# Assay type: functional, Hepatocyte
Your answer is read as %, so omit the unit and give the number.

These recorded examples may help you get a feel for the data.
molecule: Nc1ccn([C@@H]2CS[C@H](CO)O2)c(=O)n1
unit: %
recorded-number: 5
//
molecule: Nc1nc(=O)n([C@@H]2CS[C@H](CO)O2)cc1F
unit: %
recorded-number: 10
//
molecule: CC(C)(C)C(=O)OCOP(=O)(COCCn1cnc2c(N)ncnc21)OCOC(=O)C(C)(C)C
unit: %
recorded-number: 5

// below: Activity requested for another molecule
Q: // query Activity value for entry CC(C)OC(=O)OCOP(=O)(CO[C@H](C)Cn1cnc2c(N)ncnc21)OCOC(=O)OC(C)C.O=C(O)/C=C/C(=O)O [TENOFOVIR DISOPROXIL FUMARATE]
Result: 1
